target: human ACC1 (Homo sapiens, UniProt Q13085); construct: His6 (from vector pFAST-BacHTc); made in house; host or cells: SF-9 insect cells, recombinant baculovirus BAC-ACC1; assay: ACC1 inhibitory activity (malachite green); assay type: biochemical; details: test compound 10 μM; read-out: ACC1 10 μM inhibitory rate (%)
measurement.kind: inhibition at 10 µM (%)

The cases that follow already have their inhibition at 10 µM on record.
compound	result.units	test.value
CCOc1ccc(CCc2cc3oc(C(C)NC(C)=O)cc3cn2)cc1 (stereo not drawn) [Example 135]	%	14
CSCCOc1ccc(CCc2ccc3cc(C(C)NC(C)=O)oc3c2)cc1 (stereo not drawn) [Example 169]	%	23
CC(=O)N[C@H](C)[C@H]1Cc2ccc(C#Cc3ccc(OCC4CC4)cc3)cc2O1 (racemic) [Example 111]	%	30
CCOc1ccc(CCc2ccc3cc(C(C)NC(C)=O)oc3c2)cc1 (stereo not drawn) [Example 190 (retention time longer)]	%	29
CC(=O)NC(C)c1cc2cc(OCc3cnc(OCC4CC4)cc3F)ccc2o1 (stereo not drawn) [Example 154]	%	39

[A] CC(=O)N[C@@H](C)[C@@H]1Cc2ccc(OCc3ccc(OCC4CC4)cc3)cc2O1 [Example 144]
[B] CCOc1ccc(COc2ccc3oc(C(C)NC(C)=O)cc3c2)cc1 (stereo not drawn) [Example 18]
[C] CCCOc1ccc(C#Cc2ccc3c(c2)O[C@H]([C@H](C)NC(C)=O)C3)cc1 [Example 115]
[D] CCOc1ccc(OCc2ccc3sc(C(C)NC(C)=O)nc3c2)cc1 (stereo not drawn) [Example 37]
List these items ordered by inhibition at 10 µM, big to small. Write the labels out in the order the request specifies. A, C, B, D
(A: 48%, C: 25%, B: 15%, D: -4%)
